target: Alpha-1A adrenergic receptor (Homo sapiens); further: assay procedure not described here
Sequence (P35348 whole entry): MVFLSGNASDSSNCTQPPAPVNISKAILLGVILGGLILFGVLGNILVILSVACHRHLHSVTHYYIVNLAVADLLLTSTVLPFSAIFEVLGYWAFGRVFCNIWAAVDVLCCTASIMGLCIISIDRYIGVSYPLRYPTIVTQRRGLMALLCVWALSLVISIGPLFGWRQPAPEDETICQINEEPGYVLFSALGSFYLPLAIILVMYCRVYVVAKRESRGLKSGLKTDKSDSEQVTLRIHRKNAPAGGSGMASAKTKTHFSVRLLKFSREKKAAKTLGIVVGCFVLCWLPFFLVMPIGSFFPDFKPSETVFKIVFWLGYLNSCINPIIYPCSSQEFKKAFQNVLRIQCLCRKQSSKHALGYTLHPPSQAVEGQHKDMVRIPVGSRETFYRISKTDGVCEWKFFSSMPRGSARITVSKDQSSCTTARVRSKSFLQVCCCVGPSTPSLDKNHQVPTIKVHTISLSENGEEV

- molecule: "CC(=O)SCC(Cc1ccccc1)C(=O)NCC(=O)OCc1ccccc1 (stereo not given)"
  lt-gt-eq: ">"
  AC50, µM: 10
- molecule: "NCCCCCC(=O)O"
  lt-gt-eq: ">"
  AC50, µM: 10
- molecule: "CCOc1cc2ncc(C#N)c(Nc3ccc(OCc4ccccn4)c(Cl)c3)c2cc1NC(=O)/C=C/CN(C)C"
  lt-gt-eq: "="
  AC50, µM: 20
- molecule: "CC(C(=O)O)c1ccc(C(=O)c2ccccc2)s1 (stereo not given)"
  lt-gt-eq: "="
  AC50, µM: 10
- molecule: "CCN(CCO)CCCC(C)Nc1ccnc2cc(Cl)ccc12 (stereo not given) [HYDROXYCHLOROQUINE]"
  lt-gt-eq: ">"
  AC50, µM: 10
